Target: MRGPRX4 (Homo sapiens)
Sequence (Q96LA9 whole entry): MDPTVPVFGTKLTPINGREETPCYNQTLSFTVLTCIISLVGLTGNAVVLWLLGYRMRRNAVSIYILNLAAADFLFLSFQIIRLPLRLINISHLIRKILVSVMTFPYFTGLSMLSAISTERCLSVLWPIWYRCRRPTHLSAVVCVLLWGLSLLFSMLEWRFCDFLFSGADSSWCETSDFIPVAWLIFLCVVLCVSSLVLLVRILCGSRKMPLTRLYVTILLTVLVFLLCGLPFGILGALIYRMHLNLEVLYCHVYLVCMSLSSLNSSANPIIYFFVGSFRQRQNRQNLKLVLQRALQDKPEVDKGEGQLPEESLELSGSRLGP
Test: MRGPRX4 activation, Fluo-8 Ca2+ FLIPR assay in HEK293T cells stably expressing MRGPRX4
Type: cell-based
Settings: Conc. (Log[M]) −4.0
Give measured MRGPRX4 activation, fluorescence change (dF/F0), Average for each item. Keep answers brief.
Form field (numeric): enter value without unit.

Reported MRGPRX4 activation, fluorescence change (dF/F0), Average for CC[C@H]1[C@@H](O)[C@@H]2[C@H](CC[C@]3(C)[C@@H]([C@H](C)CCNC(=O)NS(=O)(=O)c4ccc(C(C)(C)C#N)cc4)CC[C@@H]23)[C@@]2(C)CCCC[C@@H]12 [5-17] was 0.016

So, CC[C@H]1[C@@H](O)[C@@H]2[C@H](CC[C@]3(C)[C@@H]([C@H](C)CCNC(=O)NS(=O)(=O)c4ccc(C(C)(C)C(N)=O)cc4)CC[C@@H]23)[C@@]2(C)CCCC[C@@H]12 [5-16] ? Its MRGPRX4 activation, fluorescence change (dF/F0), Average was 0.030

Notebook: CC[C@H]1[C@@H](O)[C@@H]2[C@H](CC[C@]3(C)[C@@H]([C@H](C)CCNC(=O)NS(=O)(=O)c4ccc(C(C)(C)CN)cc4)CC[C@@H]23)[C@@]2(C)CCCC[C@@H]12 [5-18] , MRGPRX4 activation, fluorescence change (dF/F0), Average read as 0.018

Form: molecule = CC[C@H]1[C@@H](O)[C@@H]2[C@H](CC[C@]3(C)[C@@H]([C@H](C)CCNC(=O)NS(=O)(=O)c4ccc(C5(CO)CCCC5)cc4)CC[C@@H]23)[C@@]2(C)CCCC[C@@H]12 [5-21] ; MRGPRX4 activation, fluorescence change (dF/F0), Average = 0.018

The molecule CC[C@H]1[C@@H](O)[C@@H]2[C@H](CC[C@]3(C)[C@@H]([C@H](C)CCNC(=O)NS(=O)(=O)c4ccc(C(C)(CO)CO)cc4)CC[C@@H]23)[C@@]2(C)CCCC[C@@H]12 [5-22] showed MRGPRX4 activation, fluorescence change (dF/F0), Average equal to 0.020

response.value for CC[C@H]1[C@@H](O)[C@@H]2[C@H](CC[C@]3(C)[C@@H]([C@H](C)CCNC(=O)NS(=O)(=O)c4cc(F)cc(F)c4)CC[C@@H]23)[C@@]2(C)CCCC[C@@H]12 [5-24] (field: MRGPRX4 activation, fluorescence change (dF/F0), Average) = 0.021
